assay: chemical genetic growth profiling, strain panel (AID 1159580);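 further: tested at 20 µM; growth read once vehicle control cultures reached saturation at 30 °C; lower values mean less growth of the strain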; conditions: S. cerevisiae deletion strains, growth OD, locus YJL115W, strain asf1, hits give low values
Hit rate of the full screen: of about 5,500 compounds, about 2,000 (36%) were called active. Another 18% or so got no clear call; they are omitted. Some of the results follow.
Label condition met when normalized growth is strictly below 1; at or above that, label condition not met.

CC(=O)NS(=O)(=O)c1ccc(N)cc1 | condition not met

Problem: For the compound O=C1C=C(O)c2ccccc2C1=O , is normalized growth under 1?
condition met

Problem: For the compound COc1ccc(-c2c(O)c3c(OC)c4c(cc3oc2=O)OC(C)(C)C=C4)cc1 , is normalized growth under 1?
condition met

Problem: For the compound CC(=CC1CCC(C)C2CCC(C)=C12)C(=O)O (configuration not stated) , is normalized growth under 1?
condition met

All figures here come from PubChem BioAssay AID1159580.
